- STUDY_TARGET: human secretin receptor (hSCTR) (human, UniProt P47872 23-440)
- Sequence (P47872 23-440): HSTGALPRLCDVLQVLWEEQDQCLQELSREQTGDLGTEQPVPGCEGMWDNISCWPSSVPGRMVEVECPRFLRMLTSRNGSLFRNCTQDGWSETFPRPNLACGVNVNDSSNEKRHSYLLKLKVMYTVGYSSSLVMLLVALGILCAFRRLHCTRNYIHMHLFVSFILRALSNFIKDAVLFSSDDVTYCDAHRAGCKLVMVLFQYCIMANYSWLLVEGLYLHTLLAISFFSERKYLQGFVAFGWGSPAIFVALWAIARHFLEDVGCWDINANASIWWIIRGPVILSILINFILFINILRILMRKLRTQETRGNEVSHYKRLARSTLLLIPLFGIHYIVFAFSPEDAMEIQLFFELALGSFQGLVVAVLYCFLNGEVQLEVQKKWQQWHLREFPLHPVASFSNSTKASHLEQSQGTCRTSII
- ASSAY: cell-based or functional assay
Numbered stars: 1 amine (or outer) side, 2 acyl side, 3 side chain; on linkers, the order of the positions; unused ones are H or OH. Square brackets hold non-standard residues; d marks the D form. Side chains are listed from the residue outwards. Ends that are not written are not given here. * marks the point of attachment. C20 diacid = O=C(O)CCCCCCCCCCCCCCCCCCC(=O)*; γGlu = O=C(O)[C@H](CCC(=O)[*:2])N[*:1]; AEEA = NCCOCCOCC(=O)O; Aib = CC(C)(N)C(=O)O

BINDER | pEC50 hSCTR
H[Aib]EGTFTSDVSTLK([AEEA-AEEA-γGlu-C20 diacid])EEAATQRFLEHLV-NH2 (also: K14 lipid also given as C18DA[γE][OEG][OEG]-) [SEQ ID NO: 102] | 7.1 -log M
H[Aib]EGTFTSDVSYLKEEA[Aib]QQRFLEHLV-NH2 (not fully specified (residue 14)) [SEQ ID NO: 157] | 6.5 -log M
H[Aib]EGTFTSDVSRLK([AEEA-AEEA-γGlu-C20 diacid])E[Aib]AASQRFLEHLV-NH2 [SEQ ID NO: 59] | 6.9 -log M
H[Aib]EGTFTSDVSFLK([AEEA-AEEA-γGlu-C20 diacid])ETAA[Aib]QRFLEHLV-NH2 [SEQ ID NO: 25] | 5.1 -log M
H[Aib]EGTFTSDVSTLK([AEEA-AEEA-γGlu-C20 diacid])E[Aib]AAAQRFLEHLV-NH2 [SEQ ID NO: 43] | 6.5 -log M
